Quick reference: EC50 of the listed items.
# Target: human CTLA-4 (Y166G and Y183G) expressed on CHO-K1.hCTLA-4 cells (human, UniProt P16410 36-223)
# Sequence (P16410 36-223 Y201G/Y218G limits assumed): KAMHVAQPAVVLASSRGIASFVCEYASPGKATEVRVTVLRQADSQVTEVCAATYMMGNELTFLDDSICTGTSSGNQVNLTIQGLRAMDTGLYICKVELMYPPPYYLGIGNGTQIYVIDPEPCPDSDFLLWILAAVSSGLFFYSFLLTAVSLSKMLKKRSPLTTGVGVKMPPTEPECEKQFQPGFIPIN
# Test Description: CELISA on CHO-K1.hCTLA-4 cells
# Protocol: Binding of the humanized antibodies to hCTLA-4 was studied in CELISA format. CHO-K1.hCTLA-4 cells were seeded in culture medium (DMEM-F12 (Gibco) with 10% Fetal Bovine Serum (Hyclone) and Pen/Strep (Gibco)) in tissue culture plates and cultured at 37° C., 5% CO₂ and 95% humidity until they were confluent. […] Reactions were stopped with 0.5 M H₂SO₄ and absorbances were read at 450 and 610 nm.
Metric Name: EC50 (nM)

| Binder | Recorded Value |
| --- | --- |
| hCTLA4.27H2L3 (antibody, human IgG4 S228P, kappa, V domains shown, Humanized, human IgG4 (S228P) kappa; H2 read as hCTLA4.27VH2, L3 as hCTLA4.27VL3) VH: EVQLVQSGAVLVKPGASVKVSCKASGYSFTTYWMNWVRQRPGKGLEWIGMIHPSDSETSLNQAFKDKVTITADESTSTAYMQLSSLRSEDTAVYYCARMGRRNPYYFDYWGQGTTVTVSS VL: DIQMTQSPSSLSASVGDTVTITCRPSENLYTNLAWYQQKPGKAPKLLLYGATNLADGVPSRFSGSGSGTDYTLTISSLQSEDFATYYCQHLWGTPFTFGQGTKLEIKR | 0.051 |
| hCTLA4.27H2L2 (antibody, human IgG4 S228P, kappa, V domains shown, Humanized, human IgG4 (S228P) kappa; H2 read as hCTLA4.27VH2, L2 as hCTLA4.27VL2) VH: EVQLVQSGAVLVKPGASVKVSCKASGYSFTTYWMNWVRQRPGKGLEWIGMIHPSDSETSLNQAFKDKVTITADESTSTAYMQLSSLRSEDTAVYYCARMGRRNPYYFDYWGQGTTVTVSS VL: DIQMTQSPSSLSASVGDRVTITCRPSENLYTNLAWYQQKPGKAPKLLIYGATNLADGVPSRFSGSGSGTEFSLSISSLQPEDFATYYCQHLWGTPFTFGGGTKVEIKR | 0.044 |
| hCTLA4.27A.C1 (antibody, V domains shown, Chimeric: mouse variable domains on human IgG1, kappa; also called hCTLA4.27A chimeric hIgG1) VH: QVQLQQPGAVLVRPGVSVKLSCKASGYSFTTYWMNWVKQRPGQGLEWIGMIHPSDSETSLNQAFKDKATLTIDKSSSTAYMQLSSPTSEDSAVYFCARMGRRNPYYFDYWGQGTTLTVSS VL: DIQMTQSPVSLSVSVGETVTITCRPSENLYTNLAWYQQKQGKSPQLLVYGATNLADGVPSRFSGSGSGTQYSLRINSLQSEDFGTYYCQHLWGTPFTFGSGTKLELK | 0.022 |
